Measured TGI values are reported for all entries that follow.
Tested on: SN12C renal
Assay: NCI tumour cell line growth inhibition, 48 h

The examples below pair each entry with its known result.
Clc1ccc2c(NCCCCN3OC3c3ccccc3)ccnc2c1 (stereo not given) ... 24.7 µM
CC(NC(=O)Cc1ccc(C(F)(F)P(=O)(OCc2ccc([N+](=O)[O-])o2)N(C)CCCCCl)cc1)c1ccc(OCC2CCCCC2)c(C(N)=O)c1 (stereo not given) ... 10.9 µM
CC(=O)c1cccc(NC(=O)C(=O)c2c(O)c3ccccc3oc2=O)c1 ... > 100 µM
COc1ccc(-c2oc3cc(OC)c(OC)c(O)c3c(=O)c2OC)cc1 ... > 100 µM
CC(C)(C)OC(=O)N1NC(c2ccccc2)CC1c1ccccc1 (stereo not given) ... > 100 µM
CCOC(=O)C(=CNc1ccc(N(C2=NCC(C)S2)c2ccc(F)c(Cl)c2)cc1)C(=O)OCC (stereo not given) ... 36.2 µM
Cc1cccc2[nH]c3c(c(O)cc4[nH]c5cccc(C)c5c(=O)c43)c(=O)c12 ... > 10 µM
CCCN(CCC)c1ccc(C=O)c(Cl)c1 ... > 100 µM
Nc1ccc(-c2nc3ccc(F)cc3s2)cc1Cl ... > 100 µM

Per the record, `O=C(N/N=C\c1cccc2ccccc12)Nc1ccccc1` has TGI of > 100 µM
